Values compiled from ChEMBL document CHEMBL3988442.

TEST_TARGET: Tyrosyl-tRNA synthetase, putative (Trypanosoma cruzi (strain CL Brener))
TEST: Trypanosoma cruzi tyrosyl tRNA synthetase (TcYRS) SOP
Assay type: functional
Design: scale not given: direction of the effect not stated beside the values
PARTICULARS: 30 µM
EXPERIMENTAL_ENDPOINT: Percent Effect (%)
Express it in %; write the number only.

Example cases with answers are listed next.
CC[C@H](C)[C@H](NC(=O)Cc1csc(-c2cccc(Cl)c2)n1)C(=O)O ... 7.69
CN(C)C(=O)N1C[C@@H]2CC[C@H](C1)N(C(=O)CCCn1cncn1)C2 ... 21.9
CC(=O)N1CCCC1c1cccc(Cc2ccc(F)cc2)n1 (stereo unspecified) ... 8.97
CC(C)c1csc(C2CCCN(C(=O)Cn3ccccc3=O)C2)n1 (stereo unspecified) ... 9.76

Let's switch to this compound now.
## Task State its Percent Effect: Cn1nc(CNC(=O)C2COc3ccccc3O2)cc1C1CC1 (stereo unspecified)
## Result -6.41

---

TEST_TARGET: Protein translocase subunit SecA (Escherichia coli (strain K12)) (UniProt P10408)
Sequence (P10408 whole entry): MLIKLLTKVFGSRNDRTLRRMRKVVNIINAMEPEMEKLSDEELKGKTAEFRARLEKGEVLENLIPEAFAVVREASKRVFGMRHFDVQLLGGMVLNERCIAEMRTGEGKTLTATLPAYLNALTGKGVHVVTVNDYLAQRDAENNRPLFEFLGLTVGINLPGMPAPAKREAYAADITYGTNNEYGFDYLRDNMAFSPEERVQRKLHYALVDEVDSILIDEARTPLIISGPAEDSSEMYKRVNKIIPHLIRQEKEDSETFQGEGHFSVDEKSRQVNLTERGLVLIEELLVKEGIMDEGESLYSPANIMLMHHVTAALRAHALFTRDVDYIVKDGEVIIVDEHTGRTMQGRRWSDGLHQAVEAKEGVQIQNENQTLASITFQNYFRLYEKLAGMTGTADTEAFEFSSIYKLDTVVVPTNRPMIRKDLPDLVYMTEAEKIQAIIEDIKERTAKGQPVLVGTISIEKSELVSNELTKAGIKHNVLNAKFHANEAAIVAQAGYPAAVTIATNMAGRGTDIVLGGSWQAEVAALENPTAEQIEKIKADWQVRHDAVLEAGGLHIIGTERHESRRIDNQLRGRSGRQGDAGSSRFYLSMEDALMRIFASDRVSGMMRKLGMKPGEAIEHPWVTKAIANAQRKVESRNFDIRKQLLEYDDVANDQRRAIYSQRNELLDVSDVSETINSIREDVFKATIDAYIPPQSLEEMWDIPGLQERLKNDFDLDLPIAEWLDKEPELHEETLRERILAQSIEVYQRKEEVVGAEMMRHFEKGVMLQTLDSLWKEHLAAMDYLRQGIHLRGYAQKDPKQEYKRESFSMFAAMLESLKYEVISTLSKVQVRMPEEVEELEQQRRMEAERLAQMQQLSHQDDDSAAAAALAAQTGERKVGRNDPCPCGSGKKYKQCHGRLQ
TEST: Assay to Identify E. coli SecA ATPase Inhibitors
Format: functional
Parameters: scale not given: direction of the effect not stated beside the values
PARTICULARS: 30 µM
Potency and affinity values are given separately.
EXPERIMENTAL_ENDPOINT: Percent Effect (%)
Express it in %; write the number only.

Example cases with answers are listed next.
COc1cc(C(=O)N2CCCS2(=O)=O)cc(Cl)c1OC ... -4.13
CCCNCc1cc2c(C)cc(C)cc2n2c(=O)n(C)nc12 ... -5.13
Cc1ncc2c(n1)CN(Cc1nc3ccccc3o1)CC2 ... -2.9
Cc1cccc(-c2ccc3nc(C4CCN(CC5CC5)CC4)nn3c2)c1 ... -0.334
N#Cc1c(C2CC2)cc(-c2ccc(O)cc2)nc1N ... -6.18
Cc1nc(CC(=O)N2CCCCC2c2ccn3ccnc3n2)cs1 (centres undefined) ... -1.88
Cc1nc(C)c(C(=O)N2CCCC2c2nnc3n2CCCCC3)s1 (centres undefined) ... -2.68
Cn1ccc(C(=O)N2CCN(c3ncccn3)CC2)cc1=O ... -7.23
CCc1nc(CNCC2CCCN2c2cc(NC)ncn2)cs1 (centres undefined) ... -1.05
Clc1ccc(-n2cc(CNC3CCc4ncnn4C3)cn2)cc1 (centres undefined) ... -0.3

## Task State its Percent Effect: O=C(NCCNc1ncccn1)Nc1cc(C(F)(F)F)c[nH]c1=O
## Result -4.49

## Task State its Percent Effect: Cc1cn2c(n1)CCC(NC(=O)c1c[nH]c(C)n1)C2 (centres undefined)
## Result -6.87

## Task State its Percent Effect: CCCc1n[nH]c(C2CN(C(=O)CCCn3cccn3)CCO2)n1 (centres undefined)
## Result -4.8

## Task State its Percent Effect: CCC(=O)Nc1ccc2c(c1)CN(C(=O)c1ccco1)CC2
## Result -1.48

## Task State its Percent Effect: CN(Cc1ccc(F)cc1)[C@@H]1CN(C(=O)c2cccs2)C[C@H]1O
## Result -4.06

## Task State its Percent Effect: CCC(=O)N1CCc2nc3cc(OC)c(OC)cc3c(=O)n2CC1
## Result -8.64

## Task State its Percent Effect: O=C(C1CCCCC1)N1CCC2(CCCN2CC2CC2)CC1
## Result -2.94

## Task State its Percent Effect: O=C(c1cccs1)N1C[C@H]2CC[C@@]3(N=C(c4ccccc4)NC3=O)[C@H]2C1
## Result -1.64

---

TEST_TARGET: Ubiquitin-activating enzyme e1, putative (Leishmania donovani (strain BPK282A1)) (UniProt E9BSI1)
Sequence (whole entry): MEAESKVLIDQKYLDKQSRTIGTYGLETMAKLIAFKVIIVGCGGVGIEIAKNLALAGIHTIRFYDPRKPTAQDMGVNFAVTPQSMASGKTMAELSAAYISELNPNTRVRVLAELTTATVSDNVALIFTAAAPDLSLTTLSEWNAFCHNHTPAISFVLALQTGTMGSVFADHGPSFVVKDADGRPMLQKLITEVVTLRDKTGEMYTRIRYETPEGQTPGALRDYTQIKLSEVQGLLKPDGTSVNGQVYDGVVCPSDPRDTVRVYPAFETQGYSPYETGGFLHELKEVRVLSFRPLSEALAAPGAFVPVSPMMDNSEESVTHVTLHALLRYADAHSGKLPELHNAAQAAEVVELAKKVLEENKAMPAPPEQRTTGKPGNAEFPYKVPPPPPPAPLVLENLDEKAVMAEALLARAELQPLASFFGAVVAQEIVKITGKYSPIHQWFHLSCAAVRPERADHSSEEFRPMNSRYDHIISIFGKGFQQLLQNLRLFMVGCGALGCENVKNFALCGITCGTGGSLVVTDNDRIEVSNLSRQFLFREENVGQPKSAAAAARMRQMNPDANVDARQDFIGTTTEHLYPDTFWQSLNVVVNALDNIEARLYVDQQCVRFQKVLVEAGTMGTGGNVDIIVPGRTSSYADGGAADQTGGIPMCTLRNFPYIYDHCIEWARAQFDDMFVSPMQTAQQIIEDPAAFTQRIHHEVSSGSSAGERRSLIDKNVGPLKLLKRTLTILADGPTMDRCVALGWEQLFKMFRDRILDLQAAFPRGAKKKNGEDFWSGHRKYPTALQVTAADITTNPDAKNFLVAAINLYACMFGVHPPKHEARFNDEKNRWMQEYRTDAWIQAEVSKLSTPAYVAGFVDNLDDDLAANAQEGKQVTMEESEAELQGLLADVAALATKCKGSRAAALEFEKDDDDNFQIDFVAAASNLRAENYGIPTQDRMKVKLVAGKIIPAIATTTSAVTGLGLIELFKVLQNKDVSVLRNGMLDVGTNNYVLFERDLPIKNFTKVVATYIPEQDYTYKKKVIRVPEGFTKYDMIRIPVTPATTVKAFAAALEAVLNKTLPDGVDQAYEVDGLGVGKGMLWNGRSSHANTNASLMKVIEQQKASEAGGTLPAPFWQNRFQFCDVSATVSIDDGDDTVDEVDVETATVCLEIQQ
TEST: Leishmania donovani Ubiquitin Activating Enzyme (LdE1)
Type: functional
Set-up: scale not given: direction of the effect not stated beside the values
PARTICULARS: 30 µM
Potency and affinity values are given separately.
EXPERIMENTAL_ENDPOINT: Percent Effect (%)
Express it in %; write the number only.

Example cases with answers are listed next.
O=C(c1ccc(Br)o1)N1CCCCC1Cn1cccn1 (centres undefined) ... 2.7
CN1CCC/C1=N\S(=O)(=O)c1ccc(NC(=O)c2cccs2)cc1 ... 15.6
CC(C)NC(=O)C1CN(C(=O)c2ccco2)CC12CCOCC2 (centres undefined) ... 9.09
Cc1ccc(NC(=O)N2C[C@H]3CC[C@@H]2CN(Cc2cscn2)C3)cc1 ... 2.7
CCN(CC1CCCO1)C(=O)Nc1cc(C(=O)OC)ccc1F (centres undefined) ... 7.59
Cc1cnc(CN2CCCC(c3cc(C(F)(F)F)[nH]n3)C2)cn1 (centres undefined) ... 2.67
Cc1cccc(OCCC(=O)N2CCCN(C(N)=O)CC2)c1C ... -63.3
CN(C)Cc1ccc(C2CCCCN2C(=O)c2cccc(CO)n2)cc1 (centres undefined) ... 13.5

## Task State its Percent Effect: Cc1nc(C)n(CC2CCCN2Cc2ccn(-c3ccccc3)n2)n1 (centres undefined)
## Result -20.8

## Task State its Percent Effect: Cc1cccc(CN2CCC3(CCN(Cc4ccccn4)C3)C2=O)c1 (centres undefined)
## Result 6.49

## Task State its Percent Effect: O=C(c1cc2cc(F)ccc2[nH]1)N1CCC(Nc2cccnn2)CC1
## Result 7.79

## Task State its Percent Effect: Cn1cc(CN2C[C@@H]3COC[C@]3(CNC(=O)c3ccsc3)C2)cn1
## Result -1.3

## Task State its Percent Effect: CC(C)(C)c1nnc(CN2CCOC(Cn3cccn3)C2)o1 (centres undefined)
## Result 15.2

## Task State its Percent Effect: c1ccc(-c2nc(CN3CCOC(Cn4cccn4)C3)no2)cc1 (centres undefined)
## Result 2.67

---

TEST_TARGET: Ubiquitin-activating enzyme e1, putative (Leishmania donovani (strain BPK282A1))
TEST: Leishmania donovani Ubiquitin Activating Enzyme (LdE1)
Type: functional
Design: scale not given: direction of the effect not stated beside the values
PARTICULARS: 30 µM
Potency and affinity values are given separately.
Label scheme for Percent Effect: lower than 10% is -1, 10% and above is 1.

Cc1nc(-c2cccc(C(=O)O)c2)cc(C2CCN(C(C)C)C2)n1 (stereo unspecified) ... -1
Cc1nc2ccccn2c1CN(Cc1cccnc1)CC1CCCO1 (stereo unspecified) ... -1
CCc1n[nH]c(C2CN(C(=O)c3nc(C)n4ccccc34)CCO2)n1 (stereo unspecified) ... 1
CN(C)c1ccccc1C(=O)N1C[C@@H](CN2CCOCC2)[C@@H](CO)C1 ... -1

## Task Is Percent Effect at least 10%? Consider Cc1nccn1CC1CCCN1S(=O)(=O)Cc1ccccc1F (stereo unspecified)
## Result 1

## Task Is Percent Effect at least 10%? Consider CN1CCN(c2cc(CNC(=O)c3ccc(=O)[nH]n3)ccn2)CC1
## Result 1
